Measured inhibition in vivo at 20 mg/kg accompanies every entry in the list below.
system: thrombin-induced coagulation of platelet rich plasma; experiment: Antithrombin activity on PRP, Hartert's thromboelastograph; assay type: in vivo, New Zealand rabbits; conditions: Oryctolagus cuniculus, Platelet, ip, percent decrease of index ma/[r+k] vs before treatment; 20 mg/kg intraperitoneal, rabbits

| molecule | inhibition in vivo at 20 mg/kg / % |
| --- | --- |
| CCCOc1ccc(C(=O)NCc2ccncc2)cc1C(=O)NCc1ccncc1 [Example 59] | 39.1 |
| COc1ccc(C(=O)N(Cc2cccnc2)C(C)C)cc1C(=O)N(Cc1cccnc1)C(C)C [Example 43] | 39.4 |
| O=C(NCc1cccnc1)c1cc(Cl)c(O)c(C(=O)NCc2cccnc2)c1 [Example 32] | 22.2 |
| C=C(C)Oc1c(Cl)cc(C(=O)N(C)Cc2ccncc2)cc1C(=O)N(C)Cc1ccncc1 [Example 68] | 35.2 |
| C=C(C)Oc1c(Cl)cc(C(=O)N(C)Cc2cccnc2)cc1C(=O)N(C)Cc1cccnc1 [Example 52] | 29.1 |
| CC=COc1c(Cl)cc(C(=O)N(Cc2cccnc2)C(CC)CC)cc1C(=O)N(Cc1cccnc1)C(CC)CC [Example 50] | 27.6 |
| C=C(C)COc1ccc(C(=O)N(Cc2cccnc2)C(C)C)cc1C(=O)N(Cc1cccnc1)C(C)C [Example 56] | 47.3 |
| CCCCOc1ccc(C(=O)NCc2cccnc2)cc1C(=O)NCc1cccnc1 [Example 2] | 40.1 |
| CCCCCCCCOc1ccc(C(=O)NCc2cccnc2)cc1C(=O)NCc1cccnc1 [Example 6] | 45.4 |
| COc1c(Cl)cc(C(=O)NCc2ccncc2)cc1C(=O)NCc1ccncc1 [Example 66] | 25 |
| C=C(C)COc1ccc(C(=O)N(CCC)Cc2ccncc2)cc1C(=O)N(CCC)Cc1ccncc1 [Example 70] | 48.2 |
| CC(C)(C)COc1c(Cl)cc(C(=O)NCc2cccnc2)cc1C(=O)NCc1cccnc1 [Example 28] | 27.9 |
| CCCCCOc1c(Cl)cc(C(=O)NCc2cccnc2)cc1C(=O)NCc1cccnc1 [Example 24] | 24.4 |
| C=CCOc1c(C(=O)NCc2cccnc2)cc(C(=O)NCc2cccnc2)cc1[N+](=O)[O-] [Example 36] | 23 |
| C=CCOc1c(Cl)cc(C(=O)NCc2cccnc2)cc1C(=O)NCc1cccnc1 [Example 25] | 40.6 |
| CCOc1ccc(C(=O)N(Cc2cccnc2)CC(C)C)cc1C(=O)N(Cc1cccnc1)CC(C)C [Example 44] | 38.6 |
| CC=CCOc1ccc(C(=O)NCc2cccnc2)cc1C(=O)NCc1cccnc1 [Example 11] | 52.3 |
